Recorded values, source PubChem BioAssay.

# PROTOCOL_TEXT: S. cerevisiae growth modulation with rapamycin, primary screen, strain BY4716, OD600, 96 h (AID 1091); note: test concentration not given here
# ASSAY_CONTEXT: higher = more signal, called active from +8 up or from −8 down
Rule: z-score under -1 gives 0.0, otherwise 1.0.

# example entries with known answers
Q. Kindly determine if z-score recorded for COC(=O)[C@@]1(Cc2ccccc2)[C@H]2c3cc(C(=O)N4CCCC4)n(Cc4nc5ccccc5[nH]4)c3C[C@H]2CN1C(=O)c1ccccc1 is above or exactly -1.
A. 1.0

Q. And what about the compound COc1ccc([Si](C)(C)[C@H]2[C@H](CC(=O)N3Cc4ccccc4C[C@H]3CO)O[C@@]3(C(=O)N(Cc4ccc(N5CCC5=O)cc4)c4ccccc43)[C@@H]2C)cc1 ?
A. 1.0

Q. Please do the same for C=CC[C@]1(C(=O)N2CCCCC2)N=C(c2ccc(OCCCO)cc2)O[C@H]1c1ccccc1 as well.
A. 0.0

Q. And the next one, CN(C)CCCNC(=O)[C@@]1(c2ccc([N+](=O)[O-])cc2)CC(=O)N(C2CCCCC2)[C@@H]1c1ccc(CO)cc1I ?
A. 0.0

New cases:
Q. Item O=C1OCCC/C=C\[C@H]2OC34C=CCN(Cn5nnc6ccccc65)C(=O)[C@H]3N(CCCCCCO)C(=O)[C@@H]4C12 (some centres not stated) with z-score of -1 or above?
A. 0.0

Q. # iterate: COCCCN1C(=O)[C@@]2(c3ccc([N+](=O)[O-])cc3)CC(=O)N(C3CCCCC3)[C@@H]2c2ccc(CO)cc21
A. 0.0

Q. Same again, this time with CCCC[C@H]1OB(O)C[C@H]2C1=C(COc1ccccc1)C[C@H]1C(=O)N(C)C(=O)[C@H]12
A. 1.0

====

# PROTOCOL_TEXT: binders of probe aFGF10 on microarray, primary screen, stem cell growth factor project, biochemical, small-molecule microarray, fluorescence 635/667 (AID 1071);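 note: score merges 667 nm spot intensity and signal to noise from triplicate slides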
# ASSAY_CONTEXT: higher = more signal
Quick reference for composite z-score among some compounds
When you answer, write just the number.

Q. Endpoint output: composite z-score of C=CCNC(=O)[C@H]1[C@@H]2C(=O)O[C@@H](c3ccccc3)[C@@H](c3ccccc3)N2[C@@H](c2ccc(OCCO)cc2)[C@]12C(=O)N(C(=O)OCCOC)c1ccccc12 . Value?
A. 0.591

Q. And then COc1ccc([Si](C)(C)[C@H]2[C@H](CC(=O)N3Cc4ccccc4C[C@H]3CO)O[C@@]3(C(=O)N(Cc4ccc(N5CCC5=O)cc4)c4ccccc43)[C@@H]2C)cc1 , what is it?
A. 0.265

Q. Note, next up: COc1cc2c(cc1OC)CN(C(=O)[C@H]1[C@@H]3C(=O)O[C@@H](c4ccccc4)[C@@H](c4ccccc4)N3[C@@H](c3ccc(O)cc3)[C@]13C(=O)Nc1ccc(C#CCNC(N)=O)cc13)CC2
A. 0.689

Q. Query [N-]=[N+]=NCc1ccccc1C[C@@]1(C(=O)NCC(O)CO)N=C(c2ccc(OCCCO)cc2)O[C@@H]1c1ccccc1N=[N+]=[N-] (some centres not stated) next
A. 0.451

Q. Try this compound too: C=CCOC(=O)[C@@H]1[C@H]2C(=O)O[C@H](c3ccccc3)[C@H](c3ccccc3)N2[C@H](c2ccc(OCCOC(=O)[C@@H]3C[C@@H]4C(=O)N5CCC[C@H]5C(=O)N4[C@@H]3c3ccc(O)cc3)cc2)[C@@]12C(=O)Nc1ccc(I)cc12
A. 0.235

Q. // next record COCCOC(=O)N1C(=O)[C@@]2(c3cc(C#CC4=CCCCC4)ccc31)[C@H](c1ccc(O)cc1)N1[C@H](c3ccccc3)[C@H](c3ccccc3)OC(=O)[C@H]1[C@@H]2C(N)=O
A. 0.54

Q. Next up: COCCOC(=O)N1C(=O)[C@@]2(c3ccccc31)[C@H](c1ccccc1OCCO)N1[C@H](c3ccccc3)[C@H](c3ccccc3)OC(=O)[C@H]1[C@@H]2C(=O)Nc1nc2ccccc2s1
A. 1.11

Q. Quick one: COc1ccc(C(O)C2C=CC3C(=O)N(c4ccccc4)C(=O)C3N2Nc2ccc(C(C)C)cc2)cc1OCc1ccccc1 (configuration not stated)
A. 1.08

Further cases:
Q. For the compound COc1cc2c(cc1OC)CN(C(=O)[C@@H]1[C@H]3C(=O)O[C@H](c4ccccc4)[C@H](c4ccccc4)N3[C@H](c3ccc(O)cc3)[C@@]13C(=O)Nc1ccc(C#CC4(O)CCCCCC4)cc13)CC2 , what composite z-score is on record?
A. 0.763

Q. Here is the next compound: C=CCC(OC(C)=O)[C@@H]1[C@@H](N(Cc2ccc(-c3ccccc3)cc2)C(=O)Cc2ccc(F)cc2)c2cc(OCCCO)ccc2N1C(=O)c1ccc(-c2ccccc2)cc1 (some centres not stated)
A. -0.0694

Q. Next: O=C1NC(=O)C2C1C=CC(C(O)C(c1ccccc1)c1ccccc1)N2Nc1ccc(Cl)cc1Cl (configuration not stated)
A. 0.501

Q. And the next one, COC(=O)[C@@]1(Cc2ccc(OC)cc2)[C@H]2c3cc(C(=O)N(C)C)n(CCN4CNCC4=O)c3C[C@H]2CN1C(=O)c1ccccc1 ?
A. -0.0075
